- MEASUREMENT TARGET: T1, human A-beta(1-40) peptide, monomeric (BAM) (human, biotin at the C-terminus in capture ELISA, SPR and TR-FRET; not biotinylated where coated directly (Example 7))
- T1 construct: synthetic peptide (Anaspec), TFA/HFIP treated to give monomer; also called monomeric A-beta
- MEASUREMENT NOTES: TR-FRET competition, mean IC50
pIC50: −log10 of the molar value.
METRIC: pIC50

>  <BINDER>
ABII058 (VHH, humanized variant of ABII050) VHH: EVQLLESGGGLVQPGGSLRLSCAASGRTFNNYNMGWFRQAPGKGREFVAAVSRSGVSTYYADSVKGRFTISRDNSKNTLYLQMNSLRPEDTAVYYCAAAYRGTAINVRRSYDSWGQGTLVTVSS

>  <pIC50>
7.14

$$$$
>  <BINDER>
ABII034 (VHH, humanized variant of ABII002) VHH: EVQLLESGGGLVQPGGSLRLSCVHSGPTFRTDTMGWFRQAPGKGREFVAAVTWNSGRINYADSVKGRFTISRDNSKNTVYLQMSSLRPEDTAVYYCAAHRFVVGGNRVEDWRYWGQGTLVTVSS

>  <pIC50>
8.00

$$$$
>  <BINDER>
ABII009 (VHH, humanized variant of ABII002) VHH: EVQLLESGGGLVLPGGSLRLSCVHSGPTFRTDTMGWFRQAPGKGREFVAAVTWNSGRINYADSVKGRFTVSRDNTKNAAYLQMSGLKDEDTAVYYCTAHRFVVGGNRVEDWRYWGQGTLVTVSS

>  <pIC50>
8.77

$$$$
>  <BINDER>
ABII020 (VHH, humanized variant of ABII002) VHH: EVQLLESGGGLVQPGGSLRLSCAHSGPTFRTDTMGWFRQAPGKGREFVAAVTWNSGRINYADSVKGRFTISRDNSKNTLYLQMNSLRPEDTAVYYCAAHRFVVGGNRVEDWRYWGQGTLVTVSS

>  <pIC50>
6.96

$$$$
>  <BINDER>
ABII033 (VHH, humanized variant of ABII002) VHH: EVQLLESGGGLVQPGGSLRLSCVHSGPTFRTDTMGWFRQAPGKGREFVAAVTWNSGRINYADSVKGRFTISRDNSKNAAYLQMSSLRPEDTAVYYCAAHRFVVGGNRVEDWRYWGQGTLVTVSS

>  <pIC50>
8.40

$$$$

a = ABII005 (VHH, humanized variant of ABII002) VHH: EVQLLESGGGLVLPGGSLRLSCAHSGPTFRTDTMGWFRQAPGKGREFVAAVTWNSGRINYADSVKGRFTVSRDNTRNAAYLQMSGLKDEDTAVYYCTAHRFVVGGNRVEDWRYWGQGTLVTVSS
b = ABII025 (VHH, humanized variant of ABII002) VHH: EVQLLESGGGLVQPGGSLRLSCAHSGPTFRTDTMGWFRQAPGKGREFVAAVTWNSGRINYADSVKGRFTISRDNSKNTVYLQMSSLRPEDTAVYYCAAHRFVVGGNRVEDWRYWGQGTLVTVSS
## Task Lab note: record which item had the higher pIC50, a or b . // return label of chosen record
## Result a
(a: 8.48, b: 7.74)
